Assay: Elimination half life in CD-COBS rat at 5 mg/kg, iv
Format: ADME, organism-based
Design: dose 5 mg/kg, route intravenous
Details: in vivo
recorded.metric: half-life (h)
Numeric only. Scale: h

Clc1ccc(C(Nc2ccnc3cc(Cl)ccc23)c2ccc(CN3CCCC3)cc2)cc1 (racemic) : 0.733

From here, focus on the item given below.
Which value of half-life has been reported for Clc1cccc(C(Nc2ccnc3cc(Cl)ccc23)c2ccc(CN3CCCC3)cc2)c1 (racemic) in the records?
3

====

Experiment: Ratio of drug level in liver to plasma of CD-COBS rat at 50 mg/kg, po after 180 mins
Type: ADME, organism-based
Set-up: dose 50 mg/kg, route oral
Conditions: liver and plasma
recorded.metric: Kp at 3 h

Which value of Kp at 3 h has been reported for Clc1cccc(C(Nc2ccnc3cc(Cl)ccc23)c2ccc(CN3CCCC3)cc2)c1 (racemic) in the records?
> 100

====

Assay: Liver concentration in CD-COBS rat at 50 mg/kg, po after 180 mins
recorded.metric: concentration at 3 h (ng/g)
Numeric only. Scale: ng/g

Which value of concentration at 3 h has been reported for Clc1cccc(C(Nc2ccnc3cc(Cl)ccc23)c2ccc(CN3CCCC3)cc2)c1 (racemic) in the records?
30500

====

Assay: Cytotoxicity against human KB cells by MTT assay
Format: cell-based
Conditions: read-out: TC50 (the source's name)
recorded.metric: CC50 (µM)
Numeric only. Scale: µM

FC(F)(F)c1ccc2c(NC(c3ccc(Cl)cc3)c3ccc(CN4CCCC4)cc3)ccnc2c1 (racemic) : 5.5

Which value of CC50 has been reported for FC(F)(F)c1cc(NC(c2ccc(Cl)cc2)c2ccc(CN3CCCC3)cc2)c2cccc(C(F)(F)F)c2n1 (racemic) in the records?
213

Which value of CC50 has been reported for Clc1ccc(C(Nc2ccnc3cc(Cl)ccc23)c2ccc(CN3CCCC3)cc2)cc1 (racemic) in the records?
19.6

Which value of CC50 has been reported for COc1ccc2nccc(NC(c3ccc(Cl)cc3)c3ccc(CN4CCCC4)cc3)c2c1 (racemic) in the records?
8.5

====

Assay: Cytotoxicity against PHA-stimulated human lymphocytes by MTT assay
Assay type: cell-based, Lymphocyte
Settings: read-out: TC50 (the source's name)
CC50 values, listed per item
Numeric only. Scale: µM

Look over these answered cases.
FC(F)(F)c1ccc2c(NC(c3ccc(Cl)cc3)c3ccc(CN4CCCC4)cc3)ccnc2c1 (racemic) : 24.2
Clc1ccc(C(Nc2ccnc3cc(Cl)ccc23)c2ccc(CN3CCCC3)cc2)cc1 (racemic) : 17.3
COc1ccc2nc3cc(Cl)ccc3c(NC(c3ccc(Cl)cc3)c3ccc(CN4CCCC4)cc3)c2c1 (racemic) : 16.6
CCN(CC)CCCC(C)Nc1ccnc2cc(Cl)ccc12 (stereo not given) : 18.6

From here, focus on the item given below.
Which value of CC50 has been reported for Clc1cccc(C(Nc2ccnc3cc(Cl)ccc23)c2ccc(CN3CCCC3)cc2)c1 (racemic) in the records?
54.1

====

Test system: Rattus norvegicus
Test: AUC (0 to t) in CD-COBS rat at 50 mg/kg, po after 60 mins
Format: ADME, organism-based, Plasma
Parameters: time < 1 hr, dose 50 mg/kg, route oral
Conditions: in vivo, 1 h
recorded.metric: AUC

// fetch Rattus norvegicus AUC for Clc1cccc(C(Nc2ccnc3cc(Cl)ccc23)c2ccc(CN3CCCC3)cc2)c1 (racemic)
422 ng·h/mL
